- tested_on: recombinant human HDAC4 (Homo sapiens)
- Sequence (P56524 whole entry): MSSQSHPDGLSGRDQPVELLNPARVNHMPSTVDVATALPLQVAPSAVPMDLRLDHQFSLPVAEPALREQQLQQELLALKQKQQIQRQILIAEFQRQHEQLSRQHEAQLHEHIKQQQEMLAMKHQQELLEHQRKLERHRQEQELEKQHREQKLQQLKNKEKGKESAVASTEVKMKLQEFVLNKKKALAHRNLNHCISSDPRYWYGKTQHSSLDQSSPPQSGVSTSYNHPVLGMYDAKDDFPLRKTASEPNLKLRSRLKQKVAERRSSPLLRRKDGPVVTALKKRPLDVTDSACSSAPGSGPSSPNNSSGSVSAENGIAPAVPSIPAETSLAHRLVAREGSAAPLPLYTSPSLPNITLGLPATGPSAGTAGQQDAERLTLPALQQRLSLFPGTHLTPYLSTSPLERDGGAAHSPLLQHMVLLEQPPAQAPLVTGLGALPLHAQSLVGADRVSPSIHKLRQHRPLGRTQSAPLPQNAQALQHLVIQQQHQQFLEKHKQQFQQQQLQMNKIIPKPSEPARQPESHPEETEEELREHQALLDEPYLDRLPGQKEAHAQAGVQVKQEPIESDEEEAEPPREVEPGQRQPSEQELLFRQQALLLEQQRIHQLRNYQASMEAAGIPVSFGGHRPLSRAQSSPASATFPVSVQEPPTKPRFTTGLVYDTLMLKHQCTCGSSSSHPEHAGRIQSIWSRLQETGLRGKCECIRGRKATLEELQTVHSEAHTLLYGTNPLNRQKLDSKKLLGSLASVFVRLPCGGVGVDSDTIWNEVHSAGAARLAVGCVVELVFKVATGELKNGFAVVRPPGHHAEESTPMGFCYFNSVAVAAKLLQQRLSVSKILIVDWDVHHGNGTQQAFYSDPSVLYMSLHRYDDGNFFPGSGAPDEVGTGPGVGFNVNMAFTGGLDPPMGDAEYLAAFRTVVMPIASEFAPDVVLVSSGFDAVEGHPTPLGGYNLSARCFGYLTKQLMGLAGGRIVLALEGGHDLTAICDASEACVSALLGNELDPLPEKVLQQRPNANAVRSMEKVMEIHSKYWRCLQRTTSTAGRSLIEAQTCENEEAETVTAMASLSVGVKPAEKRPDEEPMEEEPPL
- test_summary: HDAC4 in-vitro enzymatic assay
measurement_type: IC50

So the reported IC50 for C#CCOCC(=O)Nc1ccc(C(=O)Nc2ccccc2N)cc1 , on recombinant human HDAC4 (Homo sapiens), turned out to be > 200 µM

* * *

- test_summary: Rat pharmacokinetics (IV, PO)
- Type: in vivo
- condition_summary: in vivo, oral
measurement_type: bioavailability (%)
Report the figure in % without appending any unit label.

Examples from the recorded data:
C#CCOCC(=O)Nc1ccc(C(=O)Nc2ccccc2N)cc1 1
Nc1ccccc1NC(=O)c1ccc(NC(=O)COCc2cn(CCO)nn2)cc1 3

// below: bioavailability requested for another compound
Kindly note the recorded bioavailability for Nc1ccccc1NC(=O)c1ccc(OCc2cn(CCO)nn2)cc1 , which is 16

* * *

- tested_on: recombinant human HDAC2 (Homo sapiens)
- Sequence (Q92769 whole entry): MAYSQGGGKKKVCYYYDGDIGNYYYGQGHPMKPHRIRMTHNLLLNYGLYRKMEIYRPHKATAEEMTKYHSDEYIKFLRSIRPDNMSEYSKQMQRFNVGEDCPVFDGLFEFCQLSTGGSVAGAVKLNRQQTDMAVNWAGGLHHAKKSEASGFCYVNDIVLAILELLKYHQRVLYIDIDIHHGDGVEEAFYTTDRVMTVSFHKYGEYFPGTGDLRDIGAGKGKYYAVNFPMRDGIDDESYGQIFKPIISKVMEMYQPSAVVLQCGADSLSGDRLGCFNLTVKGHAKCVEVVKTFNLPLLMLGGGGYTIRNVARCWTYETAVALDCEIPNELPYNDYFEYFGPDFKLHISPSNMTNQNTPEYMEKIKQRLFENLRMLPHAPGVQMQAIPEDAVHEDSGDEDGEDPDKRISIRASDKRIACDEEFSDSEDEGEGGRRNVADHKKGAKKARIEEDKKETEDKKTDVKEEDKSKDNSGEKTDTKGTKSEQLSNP
- test_summary: biochemical
pIC50: −log10 of the molar value.
measurement_type: pIC50

pIC50 measured on C#CCOCC(=O)Nc1ccc(C(=O)Nc2ccccc2N)cc1 = ~5.92

* * *

- tested_on: recombinant human HDAC3 (Homo sapiens)
- Sequence (O15379 whole entry): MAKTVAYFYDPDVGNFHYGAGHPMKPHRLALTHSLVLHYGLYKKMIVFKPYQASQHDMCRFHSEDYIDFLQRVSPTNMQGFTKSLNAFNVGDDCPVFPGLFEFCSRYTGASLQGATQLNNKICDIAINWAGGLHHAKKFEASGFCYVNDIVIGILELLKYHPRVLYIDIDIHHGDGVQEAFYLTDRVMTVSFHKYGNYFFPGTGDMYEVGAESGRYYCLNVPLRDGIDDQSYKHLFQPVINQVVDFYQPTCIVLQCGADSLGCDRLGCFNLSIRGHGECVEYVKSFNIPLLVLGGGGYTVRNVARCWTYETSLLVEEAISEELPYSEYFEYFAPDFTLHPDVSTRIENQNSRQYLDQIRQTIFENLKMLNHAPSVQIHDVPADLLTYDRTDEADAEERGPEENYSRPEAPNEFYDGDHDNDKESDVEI
- Sequence (Q9Y618 395-489 partner limits assumed): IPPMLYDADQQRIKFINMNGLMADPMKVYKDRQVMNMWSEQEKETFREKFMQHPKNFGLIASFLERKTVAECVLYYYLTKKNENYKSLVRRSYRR
- test_summary: HDAC3 in-vitro enzymatic assay
pIC50: −log10 of the molar value.
measurement_type: pIC50

Briefly, pIC50 measured for C#CCOCC(=O)Nc1ccc(C(=O)Nc2ccccc2N)cc1 : ≥ 6.00

* * *

- test_summary: Rat pharmacokinetics (IV, PO)
- Format: in vivo
- condition_summary: in vivo, intravenous, PIV, read-out: Elimination T½ (min) PIV - rat
measurement_type: half-life (min)
Reply numerically in min, unit not repeated.

Recorded half-life, per entry:
Nc1ccccc1NC(=O)c1ccc(NC(=O)COCc2cn(CCO)nn2)cc1 126
Nc1ccccc1NC(=O)c1ccc(OCc2cn(CCO)nn2)cc1 94

Consider C#CCOCC(=O)Nc1ccc(C(=O)Nc2ccccc2N)cc1 . Its measured half-life is 66

* * *

- tested_on: recombinant human HDAC6 (Homo sapiens, UniProt Q9UBN7)
- Sequence (Q9UBN7 whole entry): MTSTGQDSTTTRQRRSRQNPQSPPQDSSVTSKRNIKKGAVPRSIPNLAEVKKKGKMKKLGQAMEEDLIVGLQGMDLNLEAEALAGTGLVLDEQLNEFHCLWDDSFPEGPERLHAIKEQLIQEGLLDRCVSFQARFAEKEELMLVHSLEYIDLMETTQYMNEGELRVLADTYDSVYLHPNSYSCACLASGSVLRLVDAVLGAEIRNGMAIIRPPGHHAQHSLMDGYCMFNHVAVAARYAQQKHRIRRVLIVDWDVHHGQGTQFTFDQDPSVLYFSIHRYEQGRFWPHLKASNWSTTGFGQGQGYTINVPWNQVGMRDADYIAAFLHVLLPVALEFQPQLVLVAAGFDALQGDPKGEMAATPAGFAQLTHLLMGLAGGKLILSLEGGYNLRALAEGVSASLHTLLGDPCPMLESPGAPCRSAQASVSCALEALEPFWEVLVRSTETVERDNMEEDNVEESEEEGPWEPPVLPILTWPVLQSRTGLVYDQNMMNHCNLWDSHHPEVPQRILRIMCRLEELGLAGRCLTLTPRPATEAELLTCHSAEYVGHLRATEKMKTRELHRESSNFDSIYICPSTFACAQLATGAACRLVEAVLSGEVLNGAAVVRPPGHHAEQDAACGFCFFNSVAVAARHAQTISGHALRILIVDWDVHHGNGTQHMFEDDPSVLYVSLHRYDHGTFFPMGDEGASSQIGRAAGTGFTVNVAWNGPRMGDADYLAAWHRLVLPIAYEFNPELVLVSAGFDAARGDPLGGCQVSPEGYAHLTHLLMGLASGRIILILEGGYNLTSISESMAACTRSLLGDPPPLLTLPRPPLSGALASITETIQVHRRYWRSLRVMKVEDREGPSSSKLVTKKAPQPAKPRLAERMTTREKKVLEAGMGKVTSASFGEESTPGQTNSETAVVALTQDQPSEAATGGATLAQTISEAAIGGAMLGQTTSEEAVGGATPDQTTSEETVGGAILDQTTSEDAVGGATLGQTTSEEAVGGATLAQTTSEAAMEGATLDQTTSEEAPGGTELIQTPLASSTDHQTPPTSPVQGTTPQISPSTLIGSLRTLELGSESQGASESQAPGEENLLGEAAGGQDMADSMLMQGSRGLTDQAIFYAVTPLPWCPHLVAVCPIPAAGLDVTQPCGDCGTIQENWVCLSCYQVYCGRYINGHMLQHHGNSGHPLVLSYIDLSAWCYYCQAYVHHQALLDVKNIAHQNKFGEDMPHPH
- test_summary: HDAC6 in-vitro enzymatic assay
pIC50: −log10 of the molar value.
measurement_type: pIC50

Reported pIC50 ( C#CCOCC(=O)Nc1ccc(C(=O)Nc2ccccc2N)cc1 ) = < 3.70

* * *

- tested_on: recombinant human HDAC8 (Homo sapiens, UniProt Q9BY41)
- Sequence (Q9BY41 1-377): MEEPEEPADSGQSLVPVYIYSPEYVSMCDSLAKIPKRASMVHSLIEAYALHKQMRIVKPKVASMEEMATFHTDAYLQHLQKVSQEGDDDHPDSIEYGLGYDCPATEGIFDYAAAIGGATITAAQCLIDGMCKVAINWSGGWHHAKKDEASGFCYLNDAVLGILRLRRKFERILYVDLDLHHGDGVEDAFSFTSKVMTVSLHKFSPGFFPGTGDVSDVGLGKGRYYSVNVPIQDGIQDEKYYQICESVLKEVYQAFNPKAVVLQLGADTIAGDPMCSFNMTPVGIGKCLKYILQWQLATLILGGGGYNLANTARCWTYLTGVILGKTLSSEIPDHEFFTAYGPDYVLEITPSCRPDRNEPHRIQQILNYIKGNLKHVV
- test_summary: HDAC8 in-vitro enzymatic assay
- Procedure: All of the compounds were dissolved in DMSO. […] Fluorescence intensity was measured at an excitation of 360 nm and an emission of 460 nm using a Tecan Infinite M1000 microplate reader. HDAC activity assays were performed in duplicates at each concentration. The fluorescent intensity data were analyzed using the computer software, Graphpad Prism. […] The IC50 value was determined by the concentration causing a half-maximal percent activity.
measurement_type: IC50

Entry C#CCOCC(=O)Nc1ccc(C(=O)Nc2ccccc2N)cc1 — recorded IC50 = > 200 µM

* * *

- tested_on: recombinant human HDAC7 (Homo sapiens, UniProt Q8WUI4)
- Sequence (Q8WUI4 whole entry): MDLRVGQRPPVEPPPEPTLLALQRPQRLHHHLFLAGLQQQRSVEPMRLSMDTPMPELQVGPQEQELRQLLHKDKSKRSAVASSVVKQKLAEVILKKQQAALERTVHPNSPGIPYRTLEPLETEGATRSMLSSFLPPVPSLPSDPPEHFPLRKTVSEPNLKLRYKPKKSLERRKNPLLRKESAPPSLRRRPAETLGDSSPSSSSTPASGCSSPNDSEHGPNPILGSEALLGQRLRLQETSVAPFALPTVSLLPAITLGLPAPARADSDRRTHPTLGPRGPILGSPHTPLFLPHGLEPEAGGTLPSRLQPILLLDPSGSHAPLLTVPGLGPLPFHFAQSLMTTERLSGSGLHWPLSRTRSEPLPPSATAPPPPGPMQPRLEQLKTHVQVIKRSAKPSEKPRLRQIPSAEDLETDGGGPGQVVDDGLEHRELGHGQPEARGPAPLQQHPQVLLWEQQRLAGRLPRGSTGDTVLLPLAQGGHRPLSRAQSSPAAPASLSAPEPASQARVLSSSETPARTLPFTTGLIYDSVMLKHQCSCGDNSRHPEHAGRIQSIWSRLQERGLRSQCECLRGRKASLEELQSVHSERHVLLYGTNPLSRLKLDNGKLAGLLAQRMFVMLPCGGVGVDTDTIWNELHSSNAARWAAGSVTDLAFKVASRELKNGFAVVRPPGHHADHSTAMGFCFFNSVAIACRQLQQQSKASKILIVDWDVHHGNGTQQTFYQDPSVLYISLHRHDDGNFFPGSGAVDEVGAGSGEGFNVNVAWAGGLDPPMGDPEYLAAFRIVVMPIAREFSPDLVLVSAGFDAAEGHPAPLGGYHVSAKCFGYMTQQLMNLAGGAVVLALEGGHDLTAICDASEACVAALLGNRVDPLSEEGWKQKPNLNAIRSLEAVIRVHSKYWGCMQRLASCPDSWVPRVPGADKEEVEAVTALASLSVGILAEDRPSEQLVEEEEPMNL
- test_summary: HDAC7 in-vitro enzymatic assay
measurement_type: IC50

compound C#CCOCC(=O)Nc1ccc(C(=O)Nc2ccccc2N)cc1 , IC50 observed: > 200 µM

* * *

- test_summary: Rat pharmacokinetics (IV, PO)
- Format: in vivo
- condition_summary: in vivo, PO, read-out: Elimination T½ (min) PO - rat
measurement_type: half-life (min)
Just the number in min, nothing appended.

Nc1ccccc1NC(=O)c1ccc(OCc2cn(CCO)nn2)cc1 132
Nc1ccccc1NC(=O)c1ccc(NC(=O)COCc2cn(CCO)nn2)cc1 35

Please look at the following compound next.
Record C#CCOCC(=O)Nc1ccc(C(=O)Nc2ccccc2N)cc1 . Reported half-life: 34
